The measured values listed here are drawn from PubChem BioAssay (NCATS).

experiment: qHTS Counterscreen for compound interference against the NCATS DSHEA and TCM libraries (AID 1919978); settings: firefly luciferase detection reagent interference, luminescence;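 further: compounds preincubated with 1 µM D-luciferin or buffer before detection reagent; % of control where 0% means no effect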
Assign max response to each entry below.
Numbers only, in %.

{"Compound": "O=C(/C=C/c1ccc(O)c(O)c1)O[C@@H]1CC(C(=O)O)=C[C@@H](O)[C@H]1O", "max response (%)": 4.08}
{"Compound": "O=C(/C=C/c1ccc(O)c(O)c1)O[C@@H]1CC(O)(C(=O)O)C[C@@H](OC(=O)/C=C/c2ccc(O)c(O)c2)C1O (stereo not given in full)", "max response (%)": 3.46}
{"Compound": "CCCCCCCCC/C=C/C(=O)CCc1ccc(O)c(OC)c1", "max response (%)": 4.66}
{"Compound": "CC(C)=CCCC(C)=CCCC(C)=CCCC=C(C)CCC=C(C)CCC=C(C)C", "max response (%)": -1.5}
{"Compound": "CC1=C2[C@H](/C=C(\\C)C(=O)O)CC[C@@H](C)[C@H]2CC1", "max response (%)": 1.69}

# batch: return max response for each of the 3 compounds below
1. O=C(/C=C/c1ccc(O)c(O)c1)O[C@@H]1C[C@](O)(C(=O)O)C[C@@H](O)[C@H]1O
2. CC(=O)OC/C=C/c1ccccc1
3. CCCCCCCCCCCCCC(=O)O

Ans.
[0.087, 3.54, -1.78]

Can you give me max response for all of these, one by one?
1. CCCCCC(=O)CC
2. CCCCCC/C=C/CCCCCCCCCC(=O)O
3. CC(C)=CCC[C@](C)(O[C@@H]1O[C@H](CO)[C@@H](O)[C@H](O)[C@H]1O)[C@H]1CC[C@]2(C)[C@@H]1[C@H](O)C[C@@H]1[C@@]3(C)CC[C@H](O)C(C)(C)[C@@H]3[C@@H](O[C@@H]3O[C@H](CO)[C@@H](O)[C@H](O)[C@H]3O[C@@H]3O[C@@H](C)[C@H](O)[C@@H](O)[C@H]3O)C[C@]12C
4. C=C/C(C)=C/C/C=C(\C)CCC=C(C)C
5. CC(C)=CCC[C@](C)(O[C@@H]1O[C@H](CO)[C@@H](O)[C@H](O)[C@H]1O)[C@H]1CC[C@]2(C)[C@@H]1[C@H](O)C[C@@H]1[C@@]3(C)CC[C@H](O)C(C)(C)[C@@H]3[C@@H](O[C@@H]3O[C@H](CO)[C@@H](O)[C@H](O)[C@H]3O)C[C@]12C
6. O=C(O)c1ccccc1
7. CC(=O)O[C@H]1[C@H](O[C@H]2CC[C@]34C[C@]35CC[C@]3(C)[C@@H]([C@@]6(C)CC[C@@H](C(C)(C)O)O6)[C@@H](O)C[C@@]3(C)[C@@H]5C[C@H](O[C@@H]3O[C@H](CO)[C@@H](O)[C@H](O)[C@H]3O)[C@H]4C2(C)C)OC[C@@H](O)[C@@H]1O

Ans.
1: -3.61; 2: 3.83; 3: 0.587; 4: 2.78; 5: 2.82; 6: -0.483; 7: -3.47
